Kindly find below Ki information for Urokinase-type plasminogen activator (Homo sapiens, UniProt P00749) taken from the literature.

molecule	Ki
NCc1ccc(Cl)cc1CNC(=O)[C@@H]1CCCN1C(=O)C1(O)c2ccccc2-c2cnccc21 (stereo in doubt; form 2)	> 100 µM
Cc1cc(OCC2CCN(C(=N)N)CC2)cc(OS(=O)(=O)c2ccccc2Cl)c1	> 200 µM

Summary for this molecule, CC1(C)C2CC1[C@]1(C)OB(C(Cc3ccccc3)NC(=O)[C@@H]3CCCN3C(=O)[C@H](Cc3ccccc3)NC(=O)OCc3ccccc3)O[C@@H]1C2 (stereo partly drawn) : Ki is > 4.3 µM

---

pKi: −log10 of the molar value.
Kindly find below pKi information for Urokinase-type plasminogen activator (Homo sapiens) taken from the literature.

Solved cases (3 shown):
molecule	assay.system	pKi
CSc1sc(C(=N)N)cc1-c1cccc(-c2ccccc2)c1	Urokinase-type plasminogen activator (Homo sapiens)	< 4.47
NC(N)c1ccc(CC(NC(=O)CNS(=O)(=O)c2ccc3ccccc3c2)C(=O)N2CCCCC2)cc1 (configuration not stated)	Urokinase-type plasminogen activator (Homo sapiens)	< 3.00
CCc1cc2ccc1CCOC(=O)Nc1ccc(S(=O)(=O)C(C)C)c(c1)CN(C)C(=O)[C@@H]2Nc1cccc(C(N)=O)c1 (stereo in doubt; 14)	Urokinase-type plasminogen activator (Homo sapiens)	< 5.00

Summary for this molecule, O=C(N[C@H]1COC[C@H]1NC(=O)c1ccc(Cl)s1)c1ccc(-n2ccccc2=O)cc1 : pKi is < 4.85
